- Tested On: BuChE (Rattus norvegicus)
- Construct: The brain and serum of Sprague–Dawley rat was used as the resource of AChE and BuChE, respectively
- Sequence (Q9JKC1 24-597): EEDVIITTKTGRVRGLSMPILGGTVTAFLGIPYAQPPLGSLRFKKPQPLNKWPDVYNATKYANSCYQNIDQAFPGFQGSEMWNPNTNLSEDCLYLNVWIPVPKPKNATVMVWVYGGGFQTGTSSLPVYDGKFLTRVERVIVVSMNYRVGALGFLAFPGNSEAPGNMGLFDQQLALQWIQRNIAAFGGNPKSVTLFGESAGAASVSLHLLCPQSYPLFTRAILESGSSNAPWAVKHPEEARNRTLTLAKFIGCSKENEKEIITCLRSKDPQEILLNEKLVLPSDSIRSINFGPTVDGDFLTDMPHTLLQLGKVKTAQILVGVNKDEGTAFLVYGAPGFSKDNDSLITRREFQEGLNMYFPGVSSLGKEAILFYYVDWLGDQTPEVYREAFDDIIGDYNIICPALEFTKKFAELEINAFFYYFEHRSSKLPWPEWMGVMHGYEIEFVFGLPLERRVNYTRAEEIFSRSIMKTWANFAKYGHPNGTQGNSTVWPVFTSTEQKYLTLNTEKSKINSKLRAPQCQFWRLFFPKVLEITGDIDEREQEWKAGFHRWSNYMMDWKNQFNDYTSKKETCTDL
- Assay Text: BuChE inhibition assay (Ellman method)
Reported Property: pIC50
Keep it numeric: pIC50 is minus log10 of the concentration in mol/L.

Q) Item under review: CN(C)CCOc1ccc(C(=O)/C=C/c2ccccc2Cl)cc1 . Reported pIC50?
A) 4.39

Q) Likewise for CN(C)CCOc1ccc(C(=O)/C=C/c2cccc(Cl)c2)cc1 ?
A) 4.49

Q) And what about the molecule CCN(CC)CCOc1ccc(C(=O)/C=C/c2ccccc2Cl)cc1 ?
A) 4.19

Q) Here is the next molecule: O=C(/C=C/c1ccc(Cl)cc1)c1ccc(OCCN2CCCC2)cc1
A) 3.95

Q) Moving on to the next molecule: CCN(CC)CCOc1ccc(C(=O)/C=C/c2cccc(Cl)c2)cc1
A) 4.10

Q) Can you check O=C(/C=C/c1ccc(Cl)cc1)c1ccc(OCCN2CCCCC2)cc1 next?
A) 3.94

Q) Lookup O=C(/C=C/c1cccc(Cl)c1)c1ccc(OCCN2CCCCC2)cc1
A) 4.61

Q) Input O=C(/C=C/c1cccc(Cl)c1)c1ccc(OCCN2CCCC2)cc1
A) 4.51

Q) Please answer likewise for O=C(/C=C/c1ccccc1Cl)c1ccc(OCCN2CCCC2)cc1
A) 4.49

Q) Entry CC(=O)N1N=C(c2ccc(OCCN3CCCC3)cc2)CC1c1ccccc1Cl (stereo not shown) please
A) 4.52

Q) Also, CC(=O)N1N=C(c2ccc(OCCN3CCCC3)cc2)CC1c1ccc(Cl)cc1 (stereo not shown) please.
A) 3.97

Q) Please give the result for CC(=O)N1N=C(c2ccc(OCCN3CCCCC3)cc2)CC1c1ccc(Cl)cc1 (stereo not shown) too.
A) 4.01

Q) Another molecule: O=C(/C=C/c1ccccc1Cl)c1ccc(OCCN2CCCCC2)cc1
A) 4.45

Q) Another molecule to check: CCN(CC)CCOc1ccc(C(=O)/C=C/c2ccc(Cl)cc2)cc1
A) 4.00

Q) Here is the next molecule: CC(=O)N1N=C(c2ccc(OCCN3CCCC3)cc2)CC1c1cccc(Cl)c1 (stereo not shown)
A) 4.56

Q) And what about the molecule CN(C)CCOc1ccc(C(=O)/C=C/c2ccc(Cl)cc2)cc1 ?
A) 4.36
